Listing of recorded Percent Effect by entry.
System: Wolbachia pipientis
experiment: Anti-Wolbachia Cell-Based Screen
Format: functional
Set-up: scale not given: in the data most compounds retested in dose-response had high values
condition-details: 5 µM
Out of some 48,000 compounds screened, about 13,000 (27%) showed an effect of 50% or more. Some of the results follow.
observed-property: Percent Effect (%)

- CCCn1nc(C(=O)N(C)Cc2nnc3n2CCC3)ccc1=O: -34.52
- Cc1cc(NC(=O)N2CCOCC2)nn1-c1ccccc1Cl: -5.01
- CN(C)C(=O)Cc1ccccc1NCc1cccc2cccnc12: -12.16
- Cc1ccc(OCC(C)NS(=O)(=O)N(C)C)cc1 (configuration not stated): -6.618
- Cc1ccc(OCC(C)NS(C)(=O)=O)cc1 (configuration not stated): 1.319
- COc1ccc(C(C(=O)O)N(C)CCN2CCCC2)c(C)c1 (configuration not stated): 0.7603
- Cc1cc(C(=O)NS(=O)(=O)Cc2ccon2)c(C)n1C(C)C: 19.94
- O=C(NS(=O)(=O)Cc1ccon1)c1ccsc1: -7.233
- CC(C)COCCC(=O)Nc1cc(-n2nnnc2C2CC2)ccc1F: 3.649
- O=C([C@H]1C[C@H]2OCC[C@H]2N(CC2CC2)C1)N1CCCC1: -0.02998
- Cc1ccc(OCC(C)NS(=O)(=O)Cc2ccon2)cc1 (configuration not stated): 103.4
- Cc1ccc(C(C(=O)O)N(C)CCN2CCOCC2)c(F)c1 (configuration not stated): -0.2175
